Target: 3',5'-cyclic-AMP phosphodiesterase 4D (Homo sapiens)
Sequence (Q08499 whole entry): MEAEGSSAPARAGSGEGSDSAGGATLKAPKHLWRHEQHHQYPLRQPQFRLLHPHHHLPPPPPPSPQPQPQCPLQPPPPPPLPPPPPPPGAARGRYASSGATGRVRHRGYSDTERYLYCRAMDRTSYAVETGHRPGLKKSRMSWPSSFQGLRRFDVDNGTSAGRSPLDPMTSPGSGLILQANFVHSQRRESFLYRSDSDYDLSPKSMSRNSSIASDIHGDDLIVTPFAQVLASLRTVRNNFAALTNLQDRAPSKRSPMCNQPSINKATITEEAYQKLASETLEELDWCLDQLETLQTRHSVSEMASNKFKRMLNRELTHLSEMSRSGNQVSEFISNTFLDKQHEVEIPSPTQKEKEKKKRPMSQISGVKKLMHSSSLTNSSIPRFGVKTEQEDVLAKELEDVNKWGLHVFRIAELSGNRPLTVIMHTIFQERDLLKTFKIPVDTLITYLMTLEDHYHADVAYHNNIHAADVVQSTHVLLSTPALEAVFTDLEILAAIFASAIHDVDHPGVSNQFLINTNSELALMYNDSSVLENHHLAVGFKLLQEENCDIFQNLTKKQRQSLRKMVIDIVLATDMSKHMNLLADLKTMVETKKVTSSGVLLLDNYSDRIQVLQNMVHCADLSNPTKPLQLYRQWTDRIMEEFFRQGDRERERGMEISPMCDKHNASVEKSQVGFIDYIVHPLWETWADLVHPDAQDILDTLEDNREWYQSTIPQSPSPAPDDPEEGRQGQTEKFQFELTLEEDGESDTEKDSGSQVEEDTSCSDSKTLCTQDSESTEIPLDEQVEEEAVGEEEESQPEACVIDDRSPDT
Under this convention, Fulfilled denotes IC50 strictly below 0.7 nM and Not fulfilled denotes IC50 at or above 0.7 nM.

Does this compound meet the criterion IC50 < 0.7 nM? CC(C)(c1cc(-c2cccc(C(=O)Nc3ccncc3)c2)c2ncccc2c1)S(C)(=O)=O Not fulfilled

Does this compound meet the criterion IC50 < 0.7 nM? CC(C)(c1cc(-c2cccc(NC(=O)c3ccc(S(C)(=O)=O)cc3)c2)c2ncccc2c1)S(C)(=O)=O Not fulfilled

Does this compound meet the criterion IC50 < 0.7 nM? CC(C)NC(=O)N(c1ccc(S(C)(=O)=O)cc1)C(C)c1cccc(-c2cc(C(C)(C)S(C)(=O)=O)cc3cccnc23)c1 (stereo unspecified) Not fulfilled

Does this compound meet the criterion IC50 < 0.7 nM? Cc1cc(C(=O)N(Cc2cccc(-c3cc(C(C)(C)C#N)cc4cccnc34)c2)c2ccc(S(C)(=O)=O)cc2)no1 Fulfilled

Does this compound meet the criterion IC50 < 0.7 nM? CC(c1cccc(-c2cc(C(C)(C)S(C)(=O)=O)cc3cccnc23)c1)N(C(=O)c1ccc(C(C)(C)O)cc1)c1ccc(S(C)(=O)=O)cc1 (stereo unspecified) Fulfilled

Does this compound meet the criterion IC50 < 0.7 nM? CC(c1cccc(-c2cc(C(C)(C)S(C)(=O)=O)cc3cccnc23)c1)N(C(=O)c1ccc(F)cc1)c1ccc(S(C)(=O)=O)cc1 (racemic) Not fulfilled

Does this compound meet the criterion IC50 < 0.7 nM? CC(C)NC(=O)N(Cc1cccc(-c2cc(C(C)(C)C#N)cc3cccnc23)c1)c1ccc(S(C)(=O)=O)cc1 Fulfilled

Does this compound meet the criterion IC50 < 0.7 nM? CC(C)NC(=O)N(Cc1cccc(-c2cc(C(C)(C)S(C)(=O)=O)cc3cccnc23)c1)c1ccc(S(C)(=O)=O)cc1 Fulfilled

Does this compound meet the criterion IC50 < 0.7 nM? CC(C)(C#N)c1cc(-c2cccc(CN(C(=O)Nc3ccccc3)c3ccc(S(C)(=O)=O)cc3)c2)c2ncccc2c1 Fulfilled

Does this compound meet the criterion IC50 < 0.7 nM? CC(C)(C#N)c1cc(-c2cccc(CN(C(=O)c3ccccc3)c3ccc(S(C)(=O)=O)cc3)c2)c2ncccc2c1 Fulfilled
